test system: 379773-124-R-J2-PDC spheroid viability; experiment: Anticancer human tumor 379773-124-R-J2-PDC patient-derived endometrial carcinoma cell line growth inhibition [POLQ]; conditions: second compound 3.16 µM; first compound 0.1 µM; hits give low values; spheroids with HUVEC and MSC
measurement.kind: viability, T/C

compound="CNCc1ccc(-c2[nH]c3cc(F)cc4c3c2CCNC4=O)cc1 + COC1C(OC(N)=O)C(O)C(Oc2ccc3c(O)c(NC(=O)c4ccc(O)c(CC=C(C)C)c4)c(=O)oc3c2C)OC1(C)C" result=79.9%
compound="C=CC(=O)N1CCN(c2nc(=O)n(-c3c(C)ccnc3C(C)C)c3nc(-c4c(O)cccc4F)c(F)cc23)C(C)C1 (stereo not given) + Cc1cccc(N(C)C(=O)C2C(O)CCN2c2nc(C)cc(C(F)(F)F)c2C#N)c1" result=90.3%
compound="C=CCn1c(=O)c2cnc(Nc3ccc(N4CCN(C)CC4)cc3)nc2n1-c1cccc(C(C)(C)O)n1 + Nc1ccc(C#CCN(C(=O)Cc2ncc(C(F)(F)F)cc2C(F)(F)F)c2ccc(F)cc2)nn1" result=105%
compound="CCc1cc2c(N3CCc4c(cc(Cn5ccnc5)cc4-c4cn(C)nc4C(F)(F)F)C3=O)cc(C)nc2c(OC)n1 + Nc1ccc(C#CCN(C(=O)Cc2ncc(C(F)(F)F)cc2C(F)(F)F)c2ccc(F)cc2)nn1" result=67.6%
compound="O=c1[nH]cc(F)c(=O)[nH]1 + COC1C(OC(N)=O)C(O)C(Oc2ccc3c(O)c(NC(=O)c4ccc(O)c(CC=C(C)C)c4)c(=O)oc3c2C)OC1(C)C" result=82.6%

* * *

test system: 379773-124-R-J2-PDC spheroid viability; experiment: Anticancer human tumor 379773-124-R-J2-PDC cell line growth inhibition [POLQ]; conditions: second compound 1 µM; first compound 0.1 µM; hits give low values; spheroids with HUVEC and MSC;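 further: spheroids exposed to drugs for seven days before readout; percent viability relative to DMSO vehicle control taken as 100%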
measurement.kind: viability, T/C (%)

compound="CCc1c2c(nc3ccc(O)cc13)-c1cc3c(c(=O)n1C2)COC(=O)[C@]3(O)CC + Cc1cccc(N(C)C(=O)C2C(O)CCN2c2nc(C)cc(C(F)(F)F)c2C#N)c1" subject_of_test="379773-124-R-J2-PDC spheroid viability" measurement_kind="viability, T/C" number=2.95
compound="C#Cc1c(F)ccc2cc(O)cc(-c3ncc4c(N5CC6CCC(C5)N6)nc(OCC56CCCN5CC(F)C6)nc4c3F)c12 (stereo not given) + Nc1ccc(C#CCN(C(=O)Cc2ncc(C(F)(F)F)cc2C(F)(F)F)c2ccc(F)cc2)nn1" subject_of_test="379773-124-R-J2-PDC spheroid viability" measurement_kind="viability, T/C" number=97.6
compound="C=CC(=O)N1CCN(c2nc(=O)n(-c3c(C)ccnc3C(C)C)c3nc(-c4c(O)cccc4F)c(F)cc23)C(C)C1 (stereo not given) + Cc1cccc(N(C)C(=O)C2C(O)CCN2c2nc(C)cc(C(F)(F)F)c2C#N)c1" subject_of_test="379773-124-R-J2-PDC spheroid viability" measurement_kind="viability, T/C" number=81.1
compound="CC1COCCN1c1cc(C2(S(C)(=N)=O)CC2)nc(-c2ccnc3[nH]ccc23)n1 (stereo not given) + Cc1cccc(N(C)C(=O)C2C(O)CCN2c2nc(C)cc(C(F)(F)F)c2C#N)c1" subject_of_test="379773-124-R-J2-PDC spheroid viability" measurement_kind="viability, T/C" number=78.8
compound="CC(C)n1c(=O)n(C)c2cnc3cc(F)c(-c4ccc(OCCCN5CCCCC5)nc4)cc3c21 + Nc1ccc(C#CCN(C(=O)Cc2ncc(C(F)(F)F)cc2C(F)(F)F)c2ccc(F)cc2)nn1" subject_of_test="379773-124-R-J2-PDC spheroid viability" measurement_kind="viability, T/C" number=98.2

* * *

system: 379773-124-R-J2-PDC spheroid viability; assay: Anticancer human tumor 379773-124-R-J2-PDC cell line growth inhibition [POLQ]; conditions: second compound 10 µM; first compound 0.1 µM; hits give low values; spheroids with HUVEC and MSC;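 further: spheroids exposed to drugs for seven days before readout; percent viability relative to DMSO vehicle control taken as 100%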
measurement.kind: viability, T/C (%)

molecule="CC(C)n1c(=O)n(C)c2cnc3cc(F)c(-c4ccc(OCCCN5CCCCC5)nc4)cc3c21 + COC1C(OC(N)=O)C(O)C(Oc2ccc3c(O)c(NC(=O)c4ccc(O)c(CC=C(C)C)c4)c(=O)oc3c2C)OC1(C)C" subject_of_test="379773-124-R-J2-PDC spheroid viability" measurement_kind="viability, T/C" number=74.6
molecule="CC1COCCN1c1cc(-c2ccnn2C)c2ccnc(-c3ccn[nH]3)c2n1 (stereo not given) + Nc1ccc(C#CCN(C(=O)Cc2ncc(C(F)(F)F)cc2C(F)(F)F)c2ccc(F)cc2)nn1" subject_of_test="379773-124-R-J2-PDC spheroid viability" measurement_kind="viability, T/C" number=64.2
molecule="COc1cc(C2c3cc4c(cc3C(OC3OC5COC(C)OC5C(O)C3O)C3COC(=O)C23)OCO4)cc(OC)c1O (stereo not given) + COC1C(OC(N)=O)C(O)C(Oc2ccc3c(O)c(NC(=O)c4ccc(O)c(CC=C(C)C)c4)c(=O)oc3c2C)OC1(C)C" subject_of_test="379773-124-R-J2-PDC spheroid viability" measurement_kind="viability, T/C" number=84.4
molecule="CNCc1ccc(-c2[nH]c3cc(F)cc4c3c2CCNC4=O)cc1 + COC1C(OC(N)=O)C(O)C(Oc2ccc3c(O)c(NC(=O)c4ccc(O)c(CC=C(C)C)c4)c(=O)oc3c2C)OC1(C)C" subject_of_test="379773-124-R-J2-PDC spheroid viability" measurement_kind="viability, T/C" number=81.7
molecule="CNCc1ccc(-c2[nH]c3cc(F)cc4c3c2CCNC4=O)cc1 + Cc1cccc(N(C)C(=O)C2C(O)CCN2c2nc(C)cc(C(F)(F)F)c2C#N)c1" subject_of_test="379773-124-R-J2-PDC spheroid viability" measurement_kind="viability, T/C" number=70.3

* * *

system: 379773-124-R-J2-PDC spheroid viability; experiment: Anticancer human tumor 379773-124-R-J2-PDC cell line growth inhibition [POLQ]; conditions: second compound 3.16 µM; first compound 0.0316 µM; spheroids with HUVEC and MSC; active means viability on the fitted dose curve at most 10% of control; inactive means the rest;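 further: spheroids exposed to drugs for seven days before readout; percent viability relative to DMSO vehicle control taken as 100%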
Labels: True for active, False for inactive

compound="CC1COCCN1c1cc(C2(S(C)(=N)=O)CC2)nc(-c2ccnc3[nH]ccc23)n1 (stereo unspecified) + COC1C(OC(N)=O)C(O)C(Oc2ccc3c(O)c(NC(=O)c4ccc(O)c(CC=C(C)C)c4)c(=O)oc3c2C)OC1(C)C" subject_of_test="379773-124-R-J2-PDC spheroid viability" label=False
compound="Nc1ccn(C2OC(CO)C(O)C2(F)F)c(=O)n1 (stereo unspecified) + Nc1ccc(C#CCN(C(=O)Cc2ncc(C(F)(F)F)cc2C(F)(F)F)c2ccc(F)cc2)nn1" subject_of_test="379773-124-R-J2-PDC spheroid viability" label=False
compound="CNCc1ccc(-c2[nH]c3cc(F)cc4c3c2CCNC4=O)cc1 + Nc1ccc(C#CCN(C(=O)Cc2ncc(C(F)(F)F)cc2C(F)(F)F)c2ccc(F)cc2)nn1" subject_of_test="379773-124-R-J2-PDC spheroid viability" label=False
compound="COc1cc2cc(C(=O)CCC(=O)O)sc2cc1OC + Cc1cccc(N(C)C(=O)C2C(O)CCN2c2nc(C)cc(C(F)(F)F)c2C#N)c1" subject_of_test="379773-124-R-J2-PDC spheroid viability" label=False
compound="COc1cccc2c1C(=O)c1c(O)c3c(c(O)c1C2=O)CC(O)(C(=O)CO)CC3OC1CC(N)C(O)C(C)O1 (stereo unspecified) + Nc1ccc(C#CCN(C(=O)Cc2ncc(C(F)(F)F)cc2C(F)(F)F)c2ccc(F)cc2)nn1" subject_of_test="379773-124-R-J2-PDC spheroid viability" label=False
compound="CC[C@@]1(O)C(=O)OCc2c1cc1n(c2=O)Cc2cc3c(CN(C)C)c(O)ccc3nc2-1 + COC1C(OC(N)=O)C(O)C(Oc2ccc3c(O)c(NC(=O)c4ccc(O)c(CC=C(C)C)c4)c(=O)oc3c2C)OC1(C)C" subject_of_test="379773-124-R-J2-PDC spheroid viability" label=False
compound="O=C(c1cc(Cc2n[nH]c(=O)c3ccccc23)ccc1F)N1CCN(C(=O)C2CC2)CC1 + Nc1ccc(C#CCN(C(=O)Cc2ncc(C(F)(F)F)cc2C(F)(F)F)c2ccc(F)cc2)nn1" subject_of_test="379773-124-R-J2-PDC spheroid viability" label=False
compound="COc1cc(C2c3cc4c(cc3C(OC3OC5COC(C)OC5C(O)C3O)C3COC(=O)C23)OCO4)cc(OC)c1O (stereo unspecified) + Cc1cccc(N(C)C(=O)C2C(O)CCN2c2nc(C)cc(C(F)(F)F)c2C#N)c1" subject_of_test="379773-124-R-J2-PDC spheroid viability" label=False
compound="CC1COCCN1c1cc(C2(S(C)(=N)=O)CC2)nc(-c2ccnc3[nH]ccc23)n1 (stereo unspecified) + Nc1ccc(C#CCN(C(=O)Cc2ncc(C(F)(F)F)cc2C(F)(F)F)c2ccc(F)cc2)nn1" subject_of_test="379773-124-R-J2-PDC spheroid viability" label=False
compound="COc1cc2cc(C(=O)CCC(=O)O)sc2cc1OC + COC1C(OC(N)=O)C(O)C(Oc2ccc3c(O)c(NC(=O)c4ccc(O)c(CC=C(C)C)c4)c(=O)oc3c2C)OC1(C)C" subject_of_test="379773-124-R-J2-PDC spheroid viability" label=False
compound="CCc1cc2c(N3CCc4c(cc(Cn5ccnc5)cc4-c4cn(C)nc4C(F)(F)F)C3=O)cc(C)nc2c(OC)n1 + COC1C(OC(N)=O)C(O)C(Oc2ccc3c(O)c(NC(=O)c4ccc(O)c(CC=C(C)C)c4)c(=O)oc3c2C)OC1(C)C" subject_of_test="379773-124-R-J2-PDC spheroid viability" label=False
compound="CCc1cc2c(N3CCc4c(cc(Cn5ccnc5)cc4-c4cn(C)nc4C(F)(F)F)C3=O)ccnc2c(OC)n1 + Nc1ccc(C#CCN(C(=O)Cc2ncc(C(F)(F)F)cc2C(F)(F)F)c2ccc(F)cc2)nn1" subject_of_test="379773-124-R-J2-PDC spheroid viability" label=False
compound="O=C(c1cc(Cc2n[nH]c(=O)c3ccccc23)ccc1F)N1CCN(C(=O)C2CC2)CC1 + COC1C(OC(N)=O)C(O)C(Oc2ccc3c(O)c(NC(=O)c4ccc(O)c(CC=C(C)C)c4)c(=O)oc3c2C)OC1(C)C" subject_of_test="379773-124-R-J2-PDC spheroid viability" label=False
compound="O=c1[nH]cc(F)c(=O)[nH]1 + Nc1ccc(C#CCN(C(=O)Cc2ncc(C(F)(F)F)cc2C(F)(F)F)c2ccc(F)cc2)nn1" subject_of_test="379773-124-R-J2-PDC spheroid viability" label=False
compound="CCc1c2c(nc3ccc(O)cc13)-c1cc3c(c(=O)n1C2)COC(=O)[C@]3(O)CC + COC1C(OC(N)=O)C(O)C(Oc2ccc3c(O)c(NC(=O)c4ccc(O)c(CC=C(C)C)c4)c(=O)oc3c2C)OC1(C)C" subject_of_test="379773-124-R-J2-PDC spheroid viability" label=True
compound="C=CCn1c(=O)c2cnc(Nc3ccc(N4CCN(C)CC4)cc3)nc2n1-c1cccc(C(C)(C)O)n1 + Cc1cccc(N(C)C(=O)C2C(O)CCN2c2nc(C)cc(C(F)(F)F)c2C#N)c1" subject_of_test="379773-124-R-J2-PDC spheroid viability" label=False
compound="C#Cc1c(F)ccc2cc(O)cc(-c3ncc4c(N5CC6CCC(C5)N6)nc(OCC56CCCN5CC(F)C6)nc4c3F)c12 (stereo unspecified) + Cc1cccc(N(C)C(=O)C2C(O)CCN2c2nc(C)cc(C(F)(F)F)c2C#N)c1" subject_of_test="379773-124-R-J2-PDC spheroid viability" label=False
compound="CC1COCCN1c1cc(-c2ccnn2C)c2ccnc(-c3ccn[nH]3)c2n1 (stereo unspecified) + COC1C(OC(N)=O)C(O)C(Oc2ccc3c(O)c(NC(=O)c4ccc(O)c(CC=C(C)C)c4)c(=O)oc3c2C)OC1(C)C" subject_of_test="379773-124-R-J2-PDC spheroid viability" label=False
compound="CCc1c2c(nc3ccc(O)cc13)-c1cc3c(c(=O)n1C2)COC(=O)[C@]3(O)CC + Nc1ccc(C#CCN(C(=O)Cc2ncc(C(F)(F)F)cc2C(F)(F)F)c2ccc(F)cc2)nn1" subject_of_test="379773-124-R-J2-PDC spheroid viability" label=True
compound="CCc1cc2c(N3CCc4c(cc(Cn5ccnc5)cc4-c4cn(C)nc4C(F)(F)F)C3=O)cc(C)nc2c(OC)n1 + Cc1cccc(N(C)C(=O)C2C(O)CCN2c2nc(C)cc(C(F)(F)F)c2C#N)c1" subject_of_test="379773-124-R-J2-PDC spheroid viability" label=False
compound="Cn1ncnc1[C@H]1c2n[nH]c(=O)c3cc(F)cc(c23)N[C@@H]1c1ccc(F)cc1 + COC1C(OC(N)=O)C(O)C(Oc2ccc3c(O)c(NC(=O)c4ccc(O)c(CC=C(C)C)c4)c(=O)oc3c2C)OC1(C)C" subject_of_test="379773-124-R-J2-PDC spheroid viability" label=False
